assayed_system: recombinant human PAI-1 (Homo sapiens);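 further: PAI-1 preincubated with compound, then two-chain tPA added, residual tPA activity read with fluorogenic Pyr-Gly-Arg-MCA substrate after 30 min at room temperature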
Sequence (P05121 24-402): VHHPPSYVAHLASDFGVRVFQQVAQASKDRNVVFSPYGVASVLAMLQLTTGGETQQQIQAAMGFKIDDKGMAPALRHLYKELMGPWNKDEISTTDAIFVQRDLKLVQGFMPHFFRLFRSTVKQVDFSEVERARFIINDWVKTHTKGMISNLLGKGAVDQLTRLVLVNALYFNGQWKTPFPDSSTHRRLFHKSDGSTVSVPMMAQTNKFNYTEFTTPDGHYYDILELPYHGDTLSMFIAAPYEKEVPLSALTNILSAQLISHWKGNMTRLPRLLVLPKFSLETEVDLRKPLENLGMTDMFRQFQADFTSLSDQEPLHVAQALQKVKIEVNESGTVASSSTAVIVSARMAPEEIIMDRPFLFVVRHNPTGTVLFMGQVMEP
assay: biochemical
condition_notes: read-out: Inhibition Rate of PAI-1 Activity (%)
Cut-off 90% on inhibition at 25 µM, inclusive. At or above means Condition met; below means Condition not met.

molecule: CC(C)(C)c1ccc(N(C(=O)C(=O)O)c2ccccc2-c2ccc(OC(F)(F)F)cc2)cc1 [Compound 157]
cat: Condition met

molecule: CC(C)(C)c1ccc(COc2cc(Oc3ccc(OC(F)(F)F)cc3)ccc2/C=C/C(=O)O)cc1 [Compound 77]
cat: Condition not met

molecule: CCCCc1ccc(CN(C(=O)C(=O)O)c2ccc(-c3ccc(OC(F)(F)F)cc3)cc2)cc1 [Compound 167]
cat: Condition not met

molecule: CC(C)(C)c1ccc(-c2ccc(N(Cc3ccc(Cl)cc3)C(=O)C(=O)O)cc2)cc1 [Compound 204]
cat: Condition met

molecule: O=C(O)C(=O)N(Cc1ccccc1)c1c(Cl)cc(-c2ccc(OC(F)(F)F)cc2)cc1Cl [Compound 180]
cat: Condition not met

molecule: COc1cc(-c2ccc(OC(F)(F)F)cc2)cc(CCC(=O)O)c1OCc1ccc(C(C)(C)C)cc1 [Compound 82]
cat: Condition met

molecule: CC(C)(C)c1ccc(Oc2cc(Oc3ccc(OC(F)(F)F)cc3)ccc2/C=C/C(=O)O)cc1 [Compound 89]
cat: Condition met

molecule: O=C(O)CCc1cc(OCc2ccc(OC(F)(F)F)cc2)ccc1OCc1ccc(OC(F)(F)F)cc1 [Compound 404]
cat: Condition not met

molecule: CC(C)(C)c1ccc(COc2cc(/C=C/C(=O)O)cc(Oc3ccc(OC(F)(F)F)cc3)c2)cc1 [Compound 409]
cat: Condition met

molecule: CC(C)(C)c1ccc(COc2ccc(Oc3ccc(OC(F)(F)F)cc3)cc2/C=C/C(=O)O)cc1 [Compound 95]
cat: Condition met

molecule: O=C(O)C(=O)N(Cc1ccc(O)cc1)c1ccc(-c2ccc(OC(F)(F)F)cc2)cc1 [Compound 181]
cat: Condition not met

molecule: O=C(O)C(=O)N(c1ccc(-c2ccc(OC(F)(F)F)cc2)cc1)C1CCCCC1 [Compound 253]
cat: Condition not met
